Values were extracted from paper PMC4926326.

tested on: MGC-803 gastric cancer cell line; assay: MTT antiproliferative assay; assay type: cell-based, human; conditions: Homo sapiens, MGC-803, 72 h, MTT, 72 h, mean ± SD of three experiments; read-out: IC50 MGC-803
Below: a set of entries, each annotated with reported IC50.
Numbers only; they are read as µM.

-- ask Give IC50 for the following compound: "C=C1C(=O)[C@@]23C(=O)O[C@H]4CCC(C)(C)[C@H]5[C@H](O)OC[C@@]45[C@@H]2CC[C@@H]1[C@H]3OC(=O)CCC(=O)OCCOc1no[n+]([O-])c1S(=O)(=O)c1ccccc1"
-- reply 1.83

-- ask Give IC50 for the following compound: C=C1C(=O)[C@]23[C@H](O)[C@H]1CC[C@H]2[C@@]12CO[C@]3(O)[C@@H](O)[C@@H]1C(C)(C)CC[C@@H]2O [Compound 7, oridonin, reference compound]
-- reply 5.69

-- ask Give IC50 for the following compound: "C=C1C(=O)[C@@]23C(=O)O[C@H]4CCC(C)(C)[C@H]5[C@H](O)OC[C@@]45[C@@H]2CC[C@@H]1[C@H]3OC(=O)c1ccccc1C(=O)OCCOc1no[n+]([O-])c1S(=O)(=O)c1ccccc1"
-- reply 1.34

Consider the additional compound presented here.
-- ask Give IC50 for the following compound: "C=C1C(=O)[C@@]23C(=O)O[C@H]4CCC(C)(C)[C@H]5[C@H](O)OC[C@@]45[C@@H]2CC[C@@H]1[C@H]3OC(=O)c1ccccc1C(=O)OCCCOc1no[n+]([O-])c1S(=O)(=O)c1ccccc1"
-- reply 1.11
